This section presents binders with their documented IC50 values.
target: NGF (nerve growth factor) (Homo sapiens, UniProt P01138 P01138:122-241); experiment: cell_activity; neurite; TF-1 >0.1; settings: tags: R&D Systems; chain copies: 2
Sequence (P01138 122-241, one chain of several): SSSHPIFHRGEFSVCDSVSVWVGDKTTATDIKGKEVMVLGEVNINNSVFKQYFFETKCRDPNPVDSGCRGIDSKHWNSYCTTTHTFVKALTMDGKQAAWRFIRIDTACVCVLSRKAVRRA
Property: IC50 (nM)

- Binder: "GGGUCCUGGAUAAGAGUUUCCGUCUCGUAUCCUGUUACCC (ssRNA, as 82(1) except 2'-OMe U33) [SEQ ID NO: 82(14)]"
  Value units: "nM"
  Reported value: 0.294
- Binder: "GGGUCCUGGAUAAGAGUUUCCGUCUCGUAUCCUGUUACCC (ssRNA, as 82(25) except 2'-OMe A12) [SEQ ID NO: 82(44)]"
  Value units: "nM"
  Reported value: 0.097
- Binder: "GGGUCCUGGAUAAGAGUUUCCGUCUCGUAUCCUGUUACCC (ssRNA, as 82(1) except 2'-OMe U4,C6,U11,C20,C21,C26,U28,U30,C31,C32,U35,C38-40) [SEQ ID NO: 82(19)]"
  Value units: "nM"
  Reported value: 0.291
- Binder: "GGGUCCUGGAUAAGAGTUUCCGUCUCGUAUCCTGUUACCC (ssRNA, as 82(48) except dU7,dT17,dT33,dU36) [SEQ ID NO: 168]"
  Value units: "nM"
  Reported value: 0.261
- Binder: "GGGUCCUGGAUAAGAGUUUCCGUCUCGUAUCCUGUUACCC (ssRNA, as 82(1) except dC20) [SEQ ID NO: 82(30)]"
  Value units: "nM"
  Reported value: 0.244
- Binder: "GGGUCCUGGAUAAGAGUTUCCGUCUCGUAUCCUGUUACCC (ssRNA, as 82(1) except dT18) [SEQ ID NO: 157]"
  Value units: "nM"
  Reported value: 0.299
